What mass density was measured for each of the following?
- Test Parameters: 298.15 K; 15000 kPa; Liquid; Vibrating tube method
Answers are plain numbers, in kg/m3.

Below, 3 molecules whose answers are already recorded.
CCO [ethanol] yielded mass density of 797.75

Recorded result, CCCO [propan-1-ol] , mass density: 810.5

Entry under test: CO [methanol] . Its mass density was 800.13

New cases:
# molecule COC(=O)OC [dimethyl carbonate] ; its mass density = 1076.72

* * *

- Test Parameters: 293.15 K; 20000 kPa; Liquid; Vibrating tube method
Would you mind telling me the reported mass density of each entry?
Give bare numbers, in kg/m3.

Check out these entries, answers already filled in.
So for `CCCO` , the logged mass density turned out to be 817.46

// sample COC(=O)OC [dimethyl carbonate] , its mass density was 1087.08

Provide the reported mass density of each entry below, same order.
1. CCO
2. CO

Marked response:
1. 805.45
2. 808.43
